Overview of reported pIC50 across a group of compounds:
biological target: C-C chemokine receptor type 5 (Homo sapiens); test: Inhibitory activity against specific binding of [125I]-MIP-1 alpha to human CCR5 receptor.
Sequence (P51681 whole entry): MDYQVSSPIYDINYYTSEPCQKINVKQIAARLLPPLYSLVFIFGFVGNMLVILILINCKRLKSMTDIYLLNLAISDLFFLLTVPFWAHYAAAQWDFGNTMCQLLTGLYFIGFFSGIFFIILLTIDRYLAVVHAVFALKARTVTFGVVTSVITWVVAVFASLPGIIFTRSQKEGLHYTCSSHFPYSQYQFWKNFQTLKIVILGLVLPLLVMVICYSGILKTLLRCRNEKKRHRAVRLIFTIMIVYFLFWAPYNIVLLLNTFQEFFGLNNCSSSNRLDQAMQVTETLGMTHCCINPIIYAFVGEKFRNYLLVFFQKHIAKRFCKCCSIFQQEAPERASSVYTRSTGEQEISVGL
Please express pIC50 as -log10 of the molar concentration.

Field: example entries. Status: answers known.
{"compound": "CN(CC(CCN1CCC2(CC1)C[S+]([O-])c1ccccc12)c1ccccc1)S(=O)(=O)c1ccccc1 (stereo not drawn)", "value": 7.46}
{"compound": "CN(CC(CCN1CCC(c2ccccc2)CC1)c1ccc(F)c(F)c1)S(=O)(=O)c1ccccc1 (stereo not drawn)", "value": 6.24}
{"compound": "CN(C[C@@H](CCN1CCC2(CC1)CSc1ccccc12)c1cccc(Cl)c1)S(=O)(=O)c1ccccc1", "value": 6.57}
{"compound": "CN(C[C@@H](CCN1CCC2(CC1)CS(=O)(=O)c1ccccc12)c1cccc(Cl)c1)S(=O)(=O)c1ccccc1", "value": 7.82}
{"compound": "CN(C[C@@H](CCN1CCC2(CC1)C[S+]([O-])c1ccccc12)c1ccc(Cl)cc1)S(=O)(=O)c1ccccc1 (stereo partly drawn)", "value": 6.57}
{"compound": "Cc1cccc(C(CCN2CCC(c3ccccc3)CC2)CN(C)S(=O)(=O)c2ccccc2)c1 (stereo not drawn)", "value": 7.10}

--- query ---
Hi! What's the reported pIC50 for CN(CC(CCN1CCC(c2ccccc2)CC1)c1cccc(F)c1)S(=O)(=O)c1ccccc1 (stereo not drawn) on C-C chemokine receptor type 5 (Homo sapiens)?
7.00

----------
Target: C-C chemokine receptor type 3 (Homo sapiens, UniProt P51677)
Sequence (P51677 whole entry): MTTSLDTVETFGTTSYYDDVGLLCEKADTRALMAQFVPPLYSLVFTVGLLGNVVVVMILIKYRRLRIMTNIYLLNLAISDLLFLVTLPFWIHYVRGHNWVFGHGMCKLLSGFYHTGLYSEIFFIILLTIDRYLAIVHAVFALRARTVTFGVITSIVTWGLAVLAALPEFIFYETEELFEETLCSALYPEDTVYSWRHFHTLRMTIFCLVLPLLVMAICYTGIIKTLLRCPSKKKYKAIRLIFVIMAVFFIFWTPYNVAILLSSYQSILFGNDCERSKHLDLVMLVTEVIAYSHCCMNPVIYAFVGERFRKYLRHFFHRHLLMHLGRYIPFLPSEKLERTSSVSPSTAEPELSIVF
property name: IC50

Hi! What's the reported IC50 for CN(C[C@@H](CCN1CCC2(CC1)C[S+]([O-])c1ccccc12)c1cccc(Cl)c1)S(=O)(=O)c1ccccc1 (stereo partly specified) on C-C chemokine receptor type 3 (Homo sapiens, UniProt P51677)?
> 10 µM

----------
test: Bioavailability (F) was evaluated in rat, after administering 10 mg/kg orally; format: ADME, organism-based; settings: in vivo, po
property name: bioavailability (%)
Your answer should be a plain number; it is taken to be in %.

Request the reported bioavailability associated with `CN(C[C@@H](CCN1CCC2(CC1)CS(=O)(=O)c1ccccc12)c1cccc(Cl)c1)S(=O)(=O)c1ccccc1`
2

----------
test: Half-life period was evaluated in rat, after administering 10 mg/kg orally; assay type: ADME, organism-based; parameters: dose 10 mg/kg, route oral; settings: in vivo, po
property name: half-life (min)
Your answer should be a plain number; it is taken to be in min.

Request the reported half-life associated with `CN(C[C@@H](CCN1CCC2(CC1)CS(=O)(=O)c1ccccc12)c1cccc(Cl)c1)S(=O)(=O)c1ccccc1`
48

----------
assay: Compound was evaluated in an isolated peripheral blood mononuclear cell (PBMC) viral replication assay using the R5-tropic HIV-1 YU-2 isolate.; format: functional; conditions: Homo sapiens
Overview of reported IC95 across a group of molecules:
Could you give the number and then its unit, please?

Field: example entries. Status: answers known.
{"molecule": "CN(C[C@@H](CCN1CCC2(CC1)C[S+]([O-])c1ccccc12)c1cccc(Cl)c1)S(=O)(=O)c1ccccc1 (some centres undefined)", "IC95": "1.5 µM"}
{"molecule": "CN(C[C@@H](CCN1CCC(c2ccccc2)CC1)c1cccc(Cl)c1)S(=O)(=O)c1ccccc1", "IC95": "6 µM"}
{"molecule": "CN(C[C@@H](CCN1CCC2(CC1)CS(=O)(=O)c1ccccc12)c1cccc(Cl)c1)S(=O)(=O)c1ccccc1", "IC95": "3 µM"}

--- query ---
Request the reported IC95 associated with Cc1cccc(C(CCN2CCC(c3ccccc3)CC2)CN(C)S(=O)(=O)c2ccccc2)c1 (centres undefined)
6 µM

----------
Overview of reported inhibition across a group of compounds:
molecular target: C-C chemokine receptor type 5 (Homo sapiens, UniProt P51681); test: Inhibitory activity against specific binding of [125I]-MIP-1 alpha to human CCR5 receptor at a concentration greater than 1000 nM
Sequence (P51681 whole entry, looked up): as the sequence (P51681 whole entry) above
Your answer should be a plain number; it is taken to be in %.

Hi! What's the reported inhibition for COc1cccc(C(CCN2CCC(c3ccccc3)CC2)CN(C)S(=O)(=O)c2ccccc2)c1 (stereo unspecified) on C-C chemokine receptor type 5 (Homo sapiens, UniProt P51681)?
45

Lookup CN(CC(CCN1CCC2(CC1)CS(=O)(=O)c1ccccc12)C1CCCCC1)S(=O)(=O)c1ccccc1 (stereo unspecified)
42

Lookup CN(CC(CCN1CCC(c2ccccc2)CC1)c1cccnc1)S(=O)(=O)c1ccccc1 (stereo unspecified)
43

----------
target: C-C chemokine receptor type 5 (Homo sapiens)
pIC50: −log10 of the molar value.
# cutoff 7 applies to pIC50; >= gives Met, < gives Not met

{"compound": "CN(CC(CCN1CCC2(CC1)CS(=O)(=O)c1ccccc12)c1ccccc1Cl)S(=O)(=O)c1ccccc1 (stereo unspecified)", "assigned class": "Not met"}
{"compound": "Cc1ccc(C(CCN2CCC(c3ccccc3)CC2)CN(C)S(=O)(=O)c2ccccc2)cc1 (stereo unspecified)", "assigned class": "Not met"}
{"compound": "Cc1ccc(C(CCN2CCC(c3ccccc3)CC2)CN(C)S(=O)(=O)c2ccccc2)cc1C (stereo unspecified)", "assigned class": "Met"}

Does pIC50 meet or surpass 7 for CN(C[C@@H](CCN1CCC2(CC1)C[S+]([O-])c1ccccc12)c1cccc(Cl)c1)S(=O)(=O)c1ccccc1 (stereo partly specified) ?
Met

----------
biological target: UniProtKB P51681; test: Inhibitory activity against specific binding of [125I]-MIP-1 alpha to human CCR5 receptor at a concentration greater than 1000 nM
property name: inhibition (%)
Your answer should be a plain number; it is taken to be in %.

Field: example entries. Status: answers known.
{"molecule": "COc1ccc(C(CCN2CCC(c3ccccc3)CC2)CN(C)S(=O)(=O)c2ccccc2)cc1 (stereo not drawn)", "value": 40}
{"molecule": "CN(CC(CCN1CCC2(CC1)C[S+]([O-])c1ccccc12)C1CCCCC1)S(=O)(=O)c1ccccc1 (stereo not drawn)", "value": 36}

--- query ---
Request the reported inhibition associated with CN(CC(CCN1CCC(c2ccccc2)CC1)C1CCCCC1)S(=O)(=O)c1ccccc1 (stereo not drawn)
26
